tested_on: alpha-5-beta-1 integrin (Homo sapiens (Human), UniProt P05556+P08648)
Sequence (P08648 42-894): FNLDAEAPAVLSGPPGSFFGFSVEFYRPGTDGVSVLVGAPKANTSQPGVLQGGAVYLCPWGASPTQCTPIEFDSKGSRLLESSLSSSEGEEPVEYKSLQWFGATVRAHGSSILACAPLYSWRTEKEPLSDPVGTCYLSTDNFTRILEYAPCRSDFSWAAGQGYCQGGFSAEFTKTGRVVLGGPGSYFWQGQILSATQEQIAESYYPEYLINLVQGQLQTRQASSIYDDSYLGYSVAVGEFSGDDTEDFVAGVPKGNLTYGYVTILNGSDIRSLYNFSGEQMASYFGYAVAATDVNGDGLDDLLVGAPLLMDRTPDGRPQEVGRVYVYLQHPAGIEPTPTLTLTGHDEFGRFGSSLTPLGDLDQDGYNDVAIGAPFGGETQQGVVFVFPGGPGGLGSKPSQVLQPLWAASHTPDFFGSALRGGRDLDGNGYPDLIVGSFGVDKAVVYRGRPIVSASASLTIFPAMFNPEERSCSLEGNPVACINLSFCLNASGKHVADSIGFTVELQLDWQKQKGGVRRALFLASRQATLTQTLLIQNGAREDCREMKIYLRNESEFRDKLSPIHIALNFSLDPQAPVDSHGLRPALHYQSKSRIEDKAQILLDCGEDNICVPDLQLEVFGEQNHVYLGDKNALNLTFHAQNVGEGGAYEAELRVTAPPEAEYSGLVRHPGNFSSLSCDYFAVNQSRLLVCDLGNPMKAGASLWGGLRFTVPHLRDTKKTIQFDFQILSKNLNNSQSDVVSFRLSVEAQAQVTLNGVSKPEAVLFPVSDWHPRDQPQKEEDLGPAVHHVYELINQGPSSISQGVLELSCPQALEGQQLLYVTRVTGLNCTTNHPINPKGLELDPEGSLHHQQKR
Sequence (P08648 895-1049 partner): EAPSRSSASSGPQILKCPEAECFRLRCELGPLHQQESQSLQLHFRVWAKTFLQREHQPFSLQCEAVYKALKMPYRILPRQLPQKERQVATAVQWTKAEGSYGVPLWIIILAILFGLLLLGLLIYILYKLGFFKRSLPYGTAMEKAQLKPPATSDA
Sequence (P05556 21-798): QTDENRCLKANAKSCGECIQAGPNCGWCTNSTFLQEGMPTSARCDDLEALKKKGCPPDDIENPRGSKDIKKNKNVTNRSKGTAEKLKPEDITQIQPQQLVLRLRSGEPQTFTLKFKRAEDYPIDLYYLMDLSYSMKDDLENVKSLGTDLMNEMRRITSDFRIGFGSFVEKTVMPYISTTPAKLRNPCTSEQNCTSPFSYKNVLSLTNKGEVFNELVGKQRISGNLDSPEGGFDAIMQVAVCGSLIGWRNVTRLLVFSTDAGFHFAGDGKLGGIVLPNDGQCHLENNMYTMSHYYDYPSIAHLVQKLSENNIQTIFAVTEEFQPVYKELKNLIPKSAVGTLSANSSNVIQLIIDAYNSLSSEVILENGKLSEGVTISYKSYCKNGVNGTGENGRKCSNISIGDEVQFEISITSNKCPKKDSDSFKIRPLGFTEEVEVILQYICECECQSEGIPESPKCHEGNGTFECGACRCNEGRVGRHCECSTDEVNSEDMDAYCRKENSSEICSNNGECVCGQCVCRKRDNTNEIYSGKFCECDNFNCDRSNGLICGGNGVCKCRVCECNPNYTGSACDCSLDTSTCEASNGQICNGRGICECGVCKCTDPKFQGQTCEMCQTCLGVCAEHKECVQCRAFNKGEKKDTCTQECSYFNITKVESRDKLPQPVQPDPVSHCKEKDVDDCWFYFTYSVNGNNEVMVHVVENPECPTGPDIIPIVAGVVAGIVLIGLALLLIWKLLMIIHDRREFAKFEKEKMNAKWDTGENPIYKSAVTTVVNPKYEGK
test_protocol: alpha-5-beta-1 integrin cell adhesion assay (SW480 cells on human plasma fibronectin)
Type: cell-based
measurement_context: cell adhesion assay, SW480 cells, fibronectin-coated plates; Table 1
Experimental: Cell Adhesion Assay. Evaluation of cell attachment to extracellular matrix proteins was performed as previously described by Yokosaki et al, J. Biol. Chem., 271: (39): 24144-24150 (1996). […] The relative number of cells in each well was evaluated after solubilization in 40 μl of 2% Triton X-100 by measuring absorbance at 595 nm in a microplate reader. […]
pIC50: −log10 of the molar value.
parameter_measured: pIC50

Prompt line: // query pIC50 value for entry N=C(N)Nc1cccc(C(=O)NCC(=O)NC[C@H](NC(=O)c2c(Cl)cc(-c3ccccc3)cc2Cl)C(=O)O)c1
Response line: > 7.00

Prompt line: For N=C(N)Nc1ccc2ncn(CCC(=O)NC[C@H](NC(=O)c3c(Cl)cccc3Cl)C(=O)O)c2c1 , what is its reported pIC50?
Response line: > 5.00

Prompt line: Could you tell me which pIC50 is on file for N=C(N)Nc1cccc(C(=O)NCC(=O)NC[C@H](NC(=O)c2c(Cl)cc(N3CCOCC3)cc2Cl)C(=O)O)c1 ?
Response line: > 7.00

Prompt line: Which measured pIC50 value corresponds to Cc1ccnc(Nc2cccc(C(=O)NCC(=O)NC[C@H](NC(=O)c3c(Cl)cccc3Cl)C(=O)O)c2)c1 ?
Response line: > 5.00
